TEST SYSTEM: CAMK1G (1-320) (Homo sapiens)
Construct: made in house; host or cells: E. coli BL21 (DE3) pLysS
Sequence (Q96NX5 1-320): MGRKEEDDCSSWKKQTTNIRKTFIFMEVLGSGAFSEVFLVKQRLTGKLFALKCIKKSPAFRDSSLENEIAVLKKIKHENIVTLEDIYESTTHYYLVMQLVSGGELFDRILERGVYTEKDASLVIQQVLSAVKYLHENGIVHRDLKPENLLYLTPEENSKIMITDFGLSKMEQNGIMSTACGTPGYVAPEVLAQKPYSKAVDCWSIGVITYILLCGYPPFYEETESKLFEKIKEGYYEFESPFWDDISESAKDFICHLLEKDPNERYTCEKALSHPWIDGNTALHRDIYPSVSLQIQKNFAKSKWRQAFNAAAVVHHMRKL
PROTOCOL TEXT: STD-NMR fragment screening, CAMK1G
Assay type: binding
TEST SETTINGS: 1 = hit, 0 = no hit
OBSERVABLE: CAMK1G (STD-NMR hit flag)
Give the figure only, with no unit attached.

STRUCTURE SMILES: Clc1ccc(CN2CCNCC2)cn1
OBSERVABLE: CAMK1G (STD-NMR hit flag)
MEASURED RESULT: 0

-- ask Please give measured CAMK1G (STD-NMR hit flag) of the following entry: CC(=O)c1c[nH]c2ncnc(Cl)c12
-- reply 1

-- ask Please give measured CAMK1G (STD-NMR hit flag) of the following entry: Nc1c(Cl)ccc2nonc12
-- reply 0

-- ask Please give measured CAMK1G (STD-NMR hit flag) of the following entry: Nc1cnccc1I
-- reply 0

-- ask Please give measured CAMK1G (STD-NMR hit flag) of the following entry: Nc1nc(Cl)nc2[nH]cnc12
-- reply 0

-- ask Please give measured CAMK1G (STD-NMR hit flag) of the following entry: Cc1[nH]c(=O)[nH]c(=O)c1I
-- reply 0

-- ask Please give measured CAMK1G (STD-NMR hit flag) of the following entry: Cn1c(=O)cc(Cl)[nH]c1=O
-- reply 0

-- ask Please give measured CAMK1G (STD-NMR hit flag) of the following entry: Oc1cccc(O)c1Br
-- reply 0

-- ask Please give measured CAMK1G (STD-NMR hit flag) of the following entry: Clc1cnc2nn[nH]c2c1
-- reply 0

-- ask Please give measured CAMK1G (STD-NMR hit flag) of the following entry: NCc1cc(Br)no1
-- reply 0

-- ask Please give measured CAMK1G (STD-NMR hit flag) of the following entry: Nc1ncccc1I
-- reply 1
